Quick reference: protein stability index of the listed items.
B1: KCNA3 (parent)
chain: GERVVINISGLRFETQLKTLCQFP

# Variants of: B1
# run_description: protein stability index of a GFP-peptide fusion (GPS, HEK-293T) (PSI 1-6); higher = more stable;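 further: lentivirally expressed fusions sorted by FACS into six bins by GFP to DsRed ratio, PSI derived from sequencing read proportions per bin multiplied by bin number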
# run_parameters: c terminus: a fixed tail appended

# mutation_spec, protein stability index
measured = [
    ("K18I", 3.07),
    ("T19C", 3.24),
    ("G1N", 2.16),
    ("V4Q", 2.34),
    ("V4S", 2.59),
    ("V5G", 2.04),
    ("E14G", 2.74),
    ("N7G", 2.14),
    ("V4W", 2.82),
    ("L20Q", 1.2),
    ("I8K", 1.97),
    ("I8A", 1.67),
    ("G1Y", 4.07),
    ("G10R", 1.26),
    ("L17H", 3.03),
    ("P24A", 2.47),
    ("F23S", 2.88),
    ("Q16S", 2.69),
    ("T19Q", 1.28),
    ("V5A", 1.53),
    ("K18M", 3.17),
    ("G1W", 4.64),
    ("F23H", 3.14),
    ("Q16P", 2),
    ("Q16F", 2.47),
    ("G10T", 2.62),
    ("K18A", 3.07),
    ("E14K", 2.42),
    ("T19K", 1.45),
    ("E14D", 2.37),
    ("V5P", 2.17),
    ("C21F", 2.95),
    ("Q22E", 2.39),
    ("E2L", 3.35),
    ("N7C", 2.1),
    ("E2F", 1.98),
    ("C21P", 3.67),
    ("L11D", 1.81),
    ("G1Q", 1.95),
]
